meta.source: the supplement of paper PMC11908140

B1: library; numbered along this chain (parent)
chain: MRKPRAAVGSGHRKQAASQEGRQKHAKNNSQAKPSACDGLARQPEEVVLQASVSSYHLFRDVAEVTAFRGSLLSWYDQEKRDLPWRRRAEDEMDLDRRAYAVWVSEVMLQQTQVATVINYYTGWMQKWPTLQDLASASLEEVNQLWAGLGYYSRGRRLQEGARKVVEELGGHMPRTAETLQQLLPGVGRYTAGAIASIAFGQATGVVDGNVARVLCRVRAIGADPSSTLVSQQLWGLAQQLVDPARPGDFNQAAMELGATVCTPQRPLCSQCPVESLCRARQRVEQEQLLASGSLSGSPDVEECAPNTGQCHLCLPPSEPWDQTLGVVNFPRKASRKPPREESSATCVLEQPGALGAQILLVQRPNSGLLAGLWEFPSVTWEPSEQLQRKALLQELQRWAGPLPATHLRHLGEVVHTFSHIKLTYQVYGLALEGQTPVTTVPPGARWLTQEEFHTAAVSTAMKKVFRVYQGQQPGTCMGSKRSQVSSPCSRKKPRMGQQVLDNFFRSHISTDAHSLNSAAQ

Variants of: B1
method.notes: 8OG:A repair function score (normalized; synonymous = 0, nonsense = -1) (normalized log-likelihood score); higher = more repair activity (WT-like);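 further: cells sorted at 72 h after reporter transfection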
condition.parameters: with 8OG:A DNA repair reporter (GFP) in HEK-293 MUTYH KO cells
// 8OG:A repair function score lookup, one value per entry
Answer field: number only, no words.

Can you share its 8OG:A repair function score? I mean this variant: A431Q
-0.242

Entry under review: P377F . Reported 8OG:A repair function score?
-1.17

May I ask what 8OG:A repair function score has been recorded for G309Q ?
-0.105

Using the record for P442I , report its 8OG:A repair function score.
-0.0279

Name the reported 8OG:A repair function score value associated with the variant E342M
0.0246

Endpoint output: 8OG:A repair function score of G148R . Value?
-0.782

What does the data say about its 8OG:A repair function score? Entry: S487E
0.00844

# get_value(readout='8OG:A repair function score', item= A245Y )
-0.107

# get_value(readout='8OG:A repair function score', item= R467L )
-0.0425
